Data credit: paper PMC8119466

# TGT: recombinant PRL-1 (Homo sapiens)
# Construct: 6xHis (N, cleaved yes); made in house; host or cells: E. coli One Shot BL21 Star
# Sequence (Q93096 1-173): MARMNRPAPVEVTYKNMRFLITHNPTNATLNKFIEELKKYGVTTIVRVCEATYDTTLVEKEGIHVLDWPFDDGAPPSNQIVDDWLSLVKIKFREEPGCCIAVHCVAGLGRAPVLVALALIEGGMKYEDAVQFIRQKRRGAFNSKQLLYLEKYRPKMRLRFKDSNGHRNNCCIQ
# METHOD_DESCRIPTION: In vitro phosphatase assay (DiFMUP hydrolysis), PRL-1; also: test concentration or dose not given here
# Format: biochemical
# ASSAY_CONDITIONS: FDA-approved drug screen; compared to DMSO
Structures can show the parent of a compound that is named as a salt.
RESULT_TYPE: % Phosphatase Activity (compared to DMSO) PRL-1 (%)

In [3]: df
Out[3]:
                                   molecule  observed
0  Cc1c(OCC(F)(F)F)ccnc1C[S+]([O-])c1nc2ccccc2[nH]1 (stereo not drawn)        94
1  C[C@]12CC[C@@H]3c4ccc(O)cc4C[C@@H](CCCCCCCCC[S+]([O-])CCCC(F)(F)C(F)(F)F)[C@H]3[C@@H]1CC[C@@H]2O (stereo partly drawn)        99
2            OC(c1ccccc1)(c1ccccc1)C1CCNCC1       109
3  CC(=O)OC1CN2CCC1CC2 (stereo not drawn) [Aceclidine HCl]        97
4  OC(CNCC(O)C1CCc2cc(F)ccc2O1)C1CCc2cc(F)ccc2O1 (stereo not drawn)       105
5  NC[C@H](O)c1ccc(O)c(O)c1.O.O=C(O)C(O)C(O)C(=O)O [Noradrenaline bitartrate monohydrate]       103
6                  O=NN(CCCl)C(=O)NC1CCCCC1        96
7   CCn1c(=O)c(-c2cc[nH]n2)cc2c(C)nc(N)nc21        89
8  CCC(=O)O[C@@H](O[P@](=O)(CCCCc1ccccc1)CC(=O)N1C[C@H](C2CCCCC2)C[C@H]1C(=O)[O-])C(C)C.[Na+] [Fosinopril Sodium]        91

====

Each item that follows carries a reported % Phosphatase Activity (compared to DMSO) PRL-2.
# TGT: recombinant PRL-2 (Homo sapiens, UniProt Q12974)
# Construct: 6xHis (N, cleaved yes); made in house; host or cells: E. coli One Shot BL21 Star
# Sequence (Q12974 whole entry): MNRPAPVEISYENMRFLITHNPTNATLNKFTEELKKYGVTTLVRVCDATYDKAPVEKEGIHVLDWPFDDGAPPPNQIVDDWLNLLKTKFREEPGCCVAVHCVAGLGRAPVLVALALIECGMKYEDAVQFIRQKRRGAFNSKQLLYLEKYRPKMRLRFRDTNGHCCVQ
# METHOD_DESCRIPTION: In vitro phosphatase assay (DiFMUP hydrolysis), PRL-2;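 also: PRL-2 activity read as DiFMUP hydrolysis after 20 min at room temperature with drug, enzyme first pre-reduced at 4 °C for 20 min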
# Assay type: biochemical
# ASSAY_CONDITIONS: FDA-approved drug screen; compared to DMSO
Counter-ions that a name gives are not always drawn.
RESULT_TYPE: % Phosphatase Activity (compared to DMSO) PRL-2

>>> df
                                   molecule                                       tgt  observed
0  Cc1cc(C)c2c(c1)[C@@H](N(Cc1cc(C(F)(F)F)cc(C(F)(F)F)c1)c1nnn(C)n1)CCCN2C[C@H]1CC[C@H](C(=O)O)CC1  recombinant PRL-2 (Homo sapiens, UniProt Q12974)       86%
1  COc1ccc(C(Cl)=C(c2ccc(OC)cc2)c2ccc(OC)cc2)cc1  recombinant PRL-2 (Homo sapiens, UniProt Q12974)      110%
2  CCOC(=O)C1=C(C)NC(C)=C(C(=O)OC)C1c1cccc([N+](=O)[O-])c1 (centres unmarked)  recombinant PRL-2 (Homo sapiens, UniProt Q12974)       84%
3  Cn1cc(C2=C(c3cn(C4CCN(Cc5ccccn5)CC4)c4ccccc34)C(=O)NC2=O)c2ccccc21  recombinant PRL-2 (Homo sapiens, UniProt Q12974)       76%
4  CC1(C)S[C@@H]2[C@H](NC(=O)[C@H](N)c3ccccc3)C(=O)N2[C@H]1C(=O)O [Ampicillin sodium]  recombinant PRL-2 (Homo sapiens, UniProt Q12974)      127%
5  Cc1oncc1C(=O)Nc1ccc(C(F)(F)F)cc1 [Leflunomide]  recombinant PRL-2 (Homo sapiens, UniProt Q12974)       80%
6  Cn1c(=O)cc(N2CCC[C@@H](N)C2)n(Cc2ccccc2C#N)c1=O  recombinant PRL-2 (Homo sapiens, UniProt Q12974)      123%
7  COc1ccc2c(c1OC)C(=O)O[C@@H]2[C@H]1c2c(cc3c(c2OC)OCO3)CCN1C [Noscapine HCl]  recombinant PRL-2 (Homo sapiens, UniProt Q12974)      116%
